Origin of values: the Immune Epitope Database (IEDB)

- MEASURED TARGET: HLA-A*02:03
- PROTOCOL DESCRIPTION: IEDB peptide-MHC binding, purified MHC/competitive/fluorescence; filed as Kd, often an IC50 or EC50 that approximates it; bounds were set here for any values at or beyond the usual limits of such assays
- EXPERIMENTAL PARAMETERS: source organism: Vaccinia virus Copenhagen
REPORTED ENDPOINT: Kd
Dear colleague, please send the value followed by its unit.

// field: Kd; key: YPPPRYITV ; value = 0.239 µM

###

- MEASURED TARGET: HLA-B*45:01
- PROTOCOL DESCRIPTION: IEDB peptide-MHC binding, purified MHC/competitive/radioactivity; filed as Kd, often an IC50 or EC50 that approximates it; bounds were set here for any values at or beyond the usual limits of such assays
- EXPERIMENTAL PARAMETERS: source organism: Mammarenavirus lassaense
REPORTED ENDPOINT: Kd (µM)
Entry rule: numbers only, all in µM.

// field: Kd; key: KEAYCQEFLL ; value = 6.68

###

- MEASURED TARGET: HLA-A*02:06
- PROTOCOL DESCRIPTION: IEDB peptide-MHC binding, purified MHC/competitive/radioactivity; filed as Kd, often an IC50 or EC50 that approximates it; bounds were set here for any values at or beyond the usual limits of such assays
- EXPERIMENTAL PARAMETERS: source organism: Dengue virus 1 Singapore/S275/1990
REPORTED ENDPOINT: Kd (nM)
Entry rule: numbers only, all in nM.

// field: Kd; key: KTMAMVLSIV ; value = 1.96

###

- MEASURED TARGET: HLA-B*08:01
- PROTOCOL DESCRIPTION: IEDB peptide-MHC binding, purified MHC/competitive/radioactivity; filed as Kd, often an IC50 or EC50 that approximates it; bounds were set here for any values at or beyond the usual limits of such assays
- EXPERIMENTAL PARAMETERS: source organism: Vaccinia virus WR
REPORTED ENDPOINT: Kd

Use the examples below as a reference point.
// field: Kd; key: ELINKFVEL ; value = 1040 nM

// field: Kd; key: NLIIHTAAL ; value = 1.55 nM

// field: Kd; key: MFGTRKNSF ; value = 2.04 nM

// field: Kd; key: KSIEQHPVV ; value = 11700 nM

// field: Kd; key: LTFKACDHI ; value = 838 nM

***
// field: Kd; key: YRIAKFLFM ; value = 16.8 nM

// field: Kd; key: SNRAIFVPI ; value = 127 nM

// field: Kd; key: RLPNLFHIL ; value = 68.5 nM

// field: Kd; key: RPKIKTNDI ; value = 2.11 nM

// field: Kd; key: ELKEKSVKF ; value = 3.19 nM

// field: Kd; key: KLLRRPFSL ; value = 0.362 nM

###

- MEASURED TARGET: HLA-B*46:01
- PROTOCOL DESCRIPTION: IEDB peptide-MHC binding, purified MHC/competitive/fluorescence; filed as Kd, often an IC50 or EC50 that approximates it; bounds were set here for any values at or beyond the usual limits of such assays
- EXPERIMENTAL PARAMETERS: source organism: Yellow fever virus
REPORTED ENDPOINT: pKd
Interpret pKd as the negative base-10 log of the concentration measured in mol/L.

// field: pKd; key: EAMDTISVF ; value = 6.28
